Below is a list of entries, each paired with its recorded Maillard reaction-inhibiting activity (%) value.
System: Maillard reaction (lysozyme / fructose, dimer formation)
protocol.notes: Maillard reaction-inhibiting effects (lysozyme dimer formation with fructose, SDS-PAGE densitometry)
Type: biochemical
condition.label: test compound concentration 1 mM; 10 mg/mL lysozyme, 200 mM fructose, pH 7.4, 37° C., 4 days; dimer formation inhibition rate
recorded.endpoint: Maillard reaction-inhibiting activity (%)

| compound | value.reported |
| --- | --- |
| CC(C)(C)Cn1c(CC[C@H](N)C(=O)NO)nc2ccccc21 | 98 |
| N=C(N)NN [Aminoguanidine, reference compound] | 7 |
| Cc1ccc(S(=O)(=O)Nc2ccc(C[C@H](N)C(=O)NO)cc2)cc1 | 102 |
| N#Cc1ccc(COc2ccc(C[C@H](N)C(=O)NO)cc2)cc1 | 100 |
| N[C@@H](Cc1ccc(O)cc1)C(=O)NO [Compound No. 112, tyrosine hydroxamate] | 99 |
| CCCCCn1cc(CC(N)C(=O)NO)c2ccccc21 (racemic) | 98 |
| CCCCCn1cc(C[C@H](N)C(=O)NO)c2ccccc21 | 104 |
| CN(C)NC(=O)c1ccc(C[C@H](N)C(=O)NO)cc1 | 35 |
| N[C@@H](Cc1ccc(OCc2ccccc2-c2ccccc2)cc1)C(=O)NO | 96 |

====

Tested on: Maillard reaction (lysozyme / fructose, dimer formation)
protocol.notes: Maillard reaction-inhibiting effects (lysozyme dimer formation with fructose, SDS-PAGE densitometry)
Format: biochemical
condition.label: test compound concentration 0.1 mM; 10 mg/mL lysozyme, 200 mM fructose, pH 7.4, 37° C., 4 days; dimer formation inhibition rate
We use 60% as the dividing line for Maillard reaction-inhibiting activity (%): on or above the line is Condition met, below is Condition not met.

| compound | class.label |
| --- | --- |
| Cc1ccc(CN(CCC[C@H](N)C(=O)NO)Cc2ccc(C)cc2)cc1 | Condition met |
| CCCn1c(CC[C@H](N)C(=O)NO)nc2cc(C)c(C)cc21 | Condition not met |
| CCCCCn1cc(CC(N)C(=O)NO)c2ccccc21 (racemic) | Condition met |
| N[C@@H](CCc1nc2ccccc2n1C1CCOCC1)C(=O)NO | Condition not met |
| Cc1cc2nc(CC[C@H](N)C(=O)NO)n(Cc3ccc(C(C)(C)C)cc3)c2cc1C | Condition met |
| CCCN(CCC)c1ccc(C[C@H](N)C(=O)NO)cc1 | Condition met |
| CC(C)(C)Cn1c(CC[C@H](N)C(=O)NO)nc2ccccc21 | Condition met |
| NC(N)=NCCC[C@H](N)C(=O)NO [Compound No. 111, arginine hydroxamate] | Condition not met |
| N[C@@H](Cc1ccc(NC(=O)Cc2ccc(F)cc2)cc1)C(=O)NO | Condition not met |

====

System: Maillard reaction (lysozyme / fructose, dimer formation)
protocol.notes: Maillard reaction-inhibiting effects (lysozyme dimer formation with fructose, SDS-PAGE densitometry)
Type: biochemical
condition.label: test compound concentration 0.3 mM; 10 mg/mL lysozyme, 200 mM fructose, pH 7.4, 37° C., 4 days; dimer formation inhibition rate
recorded.endpoint: Maillard reaction-inhibiting activity (%)

| compound | value.reported |
| --- | --- |
| CCCCCN(CCCCC)CCC[C@H](N)C(=O)NO [Compound No. 26] | 17% |
| Cc1ccc(S(=O)(=O)Nc2ccc(C[C@H](N)C(=O)NO)cc2)cc1 [Compound No. 34] | 98% |
| N[C@@H](CCC(=O)NCc1ccccn1)C(=O)NO [Compound No. 7] | −4% |
| CCCCCn1cc(C[C@@H](N)C(=O)NO)c2ccccc21 [Compound No. 110] | 103% |
| CCCCC(=O)Nc1ccc(C[C@H](N)C(=O)NO)cc1 [Compound No. 31] | 72% |
| CCCCCn1c(CC[C@H](N)C(=O)NO)nc2cc(Cl)c(Cl)cc21 [Compound No. 96] | 103% |
| N[C@@H](CCC(=O)NC1CCCCC1)C(=O)NO [Compound No. 5] | 5% |
| NC(Cc1cn(Cc2ccc(F)c(F)c2)c2ccccc12)C(=O)NO (racemic) [Compound No. 108] | 103% |
| N[C@@H](Cc1ccc(O)cc1)C(=O)NO [Compound No. 112, tyrosine hydroxamate] | 61% |
| N[C@@H](Cc1ccc(NC(=O)Cc2ccc(F)cc2)cc1)C(=O)NO [Compound No. 33] | 93% |
| Cc1cc2nc(CC[C@H](N)C(=O)NO)n(Cc3ccc(C(C)(C)C)cc3)c2cc1C [Compound No. 85] | 100% |
